test: Quantitative High-Throughput drug screen in 47 multiple myeloma cell lines against the NCATS MIPE library collection: OCIMY5_PLB cell viability assay (AID 1918988); details: OCI-MY5 myeloma viability, ATP luminescence, 48 h; series mostly up to 45.8 µM; further: nearly all actives have a fitted effect of over 65% in size
Results filed as inconclusive are left out. The source made the active and inactive calls. The call rests on the fitted dose curve; in most records, active means well fitted cell-killing curve with a large enough effect; inconclusive means small, poorly fitted or top-dose-only effect, or effect the other way; inactive means no such curve, though single readings can be large or run the other way.
Give your call using only these classes: Y = active, N = inactive

CC(=O)Nc1cccc(-n2c(=O)n(C3CC3)c(=O)c3c(Nc4ccc(I)cc4F)n(C)c(=O)c(C)c32)c1    N
CCCCN(CCCC)CC(O)c1cc(Cl)cc2c1-c1ccc(Cl)cc1C2=Cc1ccc(Cl)cc1 (centres undefined)    Y
COc1ccc2c(c1)c(C1=C(c3c[nH]c4ccccc34)C(=O)NC1=O)cn2CCCN(C)C    Y

We next turn to a different molecule, shown below.
QUERY: What was the test verdict on "C[C@@]1(C(=O)Nc2ccc(F)nc2)CCCN1c1nc(Nc2cc(C3CC3)[nH]n2)c2cccn2n1" ?
RESULT: Y

----------
experiment: qHTS of pediatric cancer cell lines to identify multiple opportunities for drug repurposing: Confirmatory screen for A673 cells (AID 1347110); conditions: A673 Ewing sarcoma cell viability; series mostly up to 45.9 µM;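 further: potency means the concentration at half of the fitted maximal effect; cells exposed to compound for 48 h before the viability read; nearly all actives have a fitted effect of over 65% in size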
Records with an inconclusive call do not appear. Calls of active or inactive are those of the source. Calls follow the shape of the dose curve; as a rule, active = well fitted cell-killing curve with a large enough effect; inconclusive = small, poorly fitted or top-dose-only effect; inactive = flat fitted curve, though single readings scatter.
Listed molecules paired with reported Potency

CC[C@]1(O)C[C@H]2CN(CCC3=c4ccccc4=N[C]3[C@@](C(=O)OC)(c3cc4c(cc3OC)N(C)[C@H]3[C@@](O)(C(N)=O)[C@H](O)[C@]5(CC)C=CCN6CC[C@]43[C@@H]65)C2)C1    0.0585 µM (active)
Cc1cccc(-c2[nH]c(C(C)(C)C)nc2-c2ccc3c(c2)OCO3)n1    13.1 µM (active)

Pending molecule:
QUERY: Tell me its Potency given "CC(=O)N1CCN(c2ccc(OCc3nn(C)c(C)c3-c3cccc4c(CCCOc5cc(C)c(Cl)c(C)c5)c(C(=O)O)n(Cc5cccnc5)c34)cc2)CC1" as the entry.
RESULT: 18.5 µM (active)

----------
Experiment: qHTS profiling of the MIPE4 collection as inhibitors of Plasmodium falciparum (DD2) proliferation (Rep 2) (AID 743346)
Conditions: P. falciparum Dd2 in erythrocytes, SYBR Green DNA, 72 h; at 28.5 µM (top of the series) unless noted
Experimental: Plasmodium falciparum is a virulent malarial parasite that kills 1-2 million people worldwide each year. […] Because mature erythrocytes lack DNA, only Plasmodium-derived DNA is detected. The SYBR Green viability assay was adapted from a method described previously (Plouffe et al., 2008). […] The following morning, fluorescence intensity at 485(14) nm excitation and 535(25) nm emission wavelengths was measured on an EnVision (Perkin Elmer) plate reader. […]
As shown below, each of these compounds has a reported parasite growth, % of control (lower = inhibition) value.
The reply should contain only the number, in %.

Clc1ccc(C2(c3ccc(-c4cn[nH]c4)cc3)CCNCC2)cc1    12.8
N#CC(c1ccc(Cl)cc1)c1c(Cl)cc(-n2ncc(=O)[nH]c2=O)cc1Cl (stereo not given)    10.2

QUERY: Write down parasite growth, % of control (lower = inhibition) measured for item "CC(=O)O[C@]1(C(C)=O)CC[C@H]2[C@@H]3C=C(Cl)C4=CC(=O)[C@@H]5C[C@H]5[C@]4(C)[C@@H]3CC[C@@]21C"
RESULT: 18.7

QUERY: Kindly indicate its recorded parasite growth, % of control (lower = inhibition). Item: "O=c1[nH]c(=O)n([C@H]2C[C@@H](O)[C@@H](CO)O2)cc1I"
RESULT: 77.7

QUERY: For the compound Cc1cc(C(C)Nc2ccccc2)c2nc(N3CCOCC3)cc(=O)n2c1 (stereo not given) , give its reported parasite growth, % of control (lower = inhibition).
RESULT: 31.1

----------
experiment: Quantitative High-Throughput drug screen in 47 multiple myeloma cell lines against the NCATS MIPE library collection: JIM3_ECACC cell viability assay (AID 1918963; further: nearly all actives have a fitted effect of over 35% in size); conditions: JIM3 myeloma viability, CellTiter-Glo ATP, 48 h; series mostly up to 45.8 µM
Inconclusive results are not listed. Calls of active or inactive are those of the source. The call rests on the fitted dose curve; in most records, active means well fitted cell-killing curve with a large enough effect; inconclusive means small, poorly fitted or top-dose-only effect; inactive means no such curve, though single readings can be large or run the other way.
In this exercise, the only acceptable responses are active, inactive

CC1(C)OC2CC3C4CC(F)C5=CC(=O)C=CC5(C)C4C(O)CC3(C)[C@]2(C(=O)CO)O1 (some centres not stated)    inactive
CNc1nc(-c2ccc3c(N)n[nH]c3c2)cc(N2C[C@@H](C(=O)NC3CCCCC3)CC[C@@H]2C)n1    active
CNC(=O)c1cc(COc2nnc(Nc3ccc(Cl)cc3)c3ccoc23)ccn1    inactive

QUERY: What classification did "C[C@@H]1[C@H](C)CC[C@]2(C(=O)O)CC[C@]3(C)C(=CC[C@@H]4[C@@]5(C)CC[C@H](O)C(C)(C)[C@H]5CC[C@]43C)[C@@H]12" end up with in this test?
RESULT: inactive

QUERY: Fill in: this test's call for "CO[C@H]1/C=C\O[C@@]2(C)Oc3c(C)c(O)c4c(O)c(c5c(nc6cc(C)ccn65)c4c3C2=O)NC(=O)C(C)=CC=C[C@H](C)[C@H](O)[C@@H](C)[C@@H](O)[C@@H](C)[C@H](OC(C)=O)[C@H]1C" is ___
RESULT: inactive

----------
assay: Quantitative High-Throughput drug screen in 47 multiple myeloma cell lines against the NCATS MIPE library collection: KMS11_JCRBsus cell viability assay (AID 1919873); conditions: KMS11 myeloma viability, CellTiter-Glo ATP luminescence, 48 h; series mostly up to 45.8 µM; further: nearly all actives have a fitted effect of over 50% in size
Records with an inconclusive call do not appear. Calls of active or inactive are those of the source. Calls come from the whole dose curve; as a rule, active = well fitted cell-killing curve with a large enough effect; inconclusive = small, poorly fitted or top-dose-only effect, or effect the other way; inactive = no such curve, though single readings can be large or run the other way.
Choose one outcome from this list and give only that: true (1) = active, false (0) = inactive

Nc1ncnc2c1c(-c1cccc(OCc3ccccc3)c1)cn2C1CC(CN2CCC2)C1 (stereo not given)    true (1)
CCNC(=O)c1noc(-c2cc(C(C)C)c(O)cc2O)c1-c1ccc(CN2CCOCC2)cc1    true (1)
Cn1c(=O)c(-c2c(Cl)cccc2Cl)cc2cnc(Nc3cccc(C(=O)O)c3)nc21    false (0)

QUERY: Recorded test call requested for COc1ccc(-c2nc3ccc(C4=NNC(=O)CC4C)cc3[nH]2)cc1 (stereo not given)
RESULT: false (0)

QUERY: // param item: "CN(C)CCOc1ccc(-c2nc(-c3ccc4c(c3)CCC4=NO)c(-c3ccncc3)[nH]2)cc1" ; yields the recorded call
RESULT: true (1)

QUERY: What outcome does the record of this test show for "CC(C)C[C@@H](C(=O)N[C@H](C(=O)OC1CCCC1)c1ccccc1)[C@H](O)C(=O)NO" ?
RESULT: true (1)

QUERY: Test call, this molecule: "O=C(Nc1cccc(C(F)(F)F)c1)Nc1cc(S(=O)(=O)NC2CC2)ccc1-c1ccsc1"
RESULT: true (1)

----------
biological target: Glucocorticoid receptor (Homo sapiens) (UniProt P04150); experiment: GR-GFP Redistribution (AID 450); details: U2OS GR-GFP nuclear translocation, laser cytometry, 2 h; further: potency means the concentration at half of the fitted maximal effect
Sequence (P04150 whole entry, looked up): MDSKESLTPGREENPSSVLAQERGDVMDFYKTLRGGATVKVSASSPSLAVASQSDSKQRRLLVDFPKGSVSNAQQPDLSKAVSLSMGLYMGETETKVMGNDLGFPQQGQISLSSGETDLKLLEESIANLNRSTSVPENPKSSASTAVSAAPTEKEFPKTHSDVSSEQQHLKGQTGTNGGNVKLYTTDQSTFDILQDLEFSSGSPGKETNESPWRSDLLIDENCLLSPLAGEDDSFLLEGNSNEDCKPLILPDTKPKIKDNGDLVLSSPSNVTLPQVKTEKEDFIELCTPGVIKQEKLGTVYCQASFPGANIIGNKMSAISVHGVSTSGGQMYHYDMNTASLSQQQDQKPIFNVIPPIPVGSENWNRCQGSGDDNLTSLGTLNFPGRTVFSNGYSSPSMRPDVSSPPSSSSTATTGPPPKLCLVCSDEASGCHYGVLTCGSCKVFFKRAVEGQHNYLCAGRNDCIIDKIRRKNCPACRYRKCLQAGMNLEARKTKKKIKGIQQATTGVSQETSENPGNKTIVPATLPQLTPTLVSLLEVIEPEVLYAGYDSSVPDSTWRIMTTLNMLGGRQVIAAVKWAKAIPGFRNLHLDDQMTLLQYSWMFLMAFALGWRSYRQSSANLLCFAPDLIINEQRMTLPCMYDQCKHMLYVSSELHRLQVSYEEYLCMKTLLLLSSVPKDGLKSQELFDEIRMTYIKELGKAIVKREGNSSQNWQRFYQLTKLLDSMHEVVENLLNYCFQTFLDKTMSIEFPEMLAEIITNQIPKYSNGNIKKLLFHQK
Activity calls are given as the source filed them.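 How the source made its calls: active means compounds whose dose series gives a full or clear partial fitted curve of increased nuclear translocation; inconclusive means weak partial curve or effect only at the top dose; inactive means no dose-dependent translocation response.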
Quantity kind: Potency

CC1C(=O)OC2C(O)C34C5CC(C(C)(C)C)C36C(OC(=O)C6O)OC4(C(=O)O5)C12O (centres undefined)    > 46 µM (inactive)
CN1CCN2c3ncccc3Cc3ccccc3C2C1 (centres undefined)    > 46 µM (inactive)
CN[C@H]1[C@@H](O[C@@H]2[C@H](O[C@@H]3[C@@H](O)[C@@H](O)[C@@H](N=C(N)N)[C@@H](O)[C@@H]3N=C(N)N)O[C@H](C)[C@@]2(O)C=O)O[C@@H](CO)[C@@H](O)[C@H]1O    > 20.6 µM (inactive)
Cc1ccc(NC(=O)c2cccc(N(C)C)c2)cc1NC(=O)c1ccc(O)cc1    > 46 µM (inactive)
NC(=O)c1nnn(Cc2cc(Cl)c(C(=O)c3ccc(Cl)cc3)c(Cl)c2)c1N    > 46 µM (inactive)
CCCCC(C=O)NC(=O)C(CC(C)C)NC(=O)OCc1ccccc1 (centres undefined)    > 46 µM (inactive)
Cc1cc(NC(=O)Nc2ccc(N(C)C)cc2)c2cc(F)cc(F)c2n1    > 46 µM (inactive)
CC(NCCc1ccc(O)cc1)C(O)c1ccc(O)cc1 (centres undefined)    > 20.6 µM (inactive)

Proceeding to the next compound to report its Potency.
QUERY: Return Potency (reported value) for this compound: "NS(=O)(=O)c1cc(Cl)c(Cl)c(S(N)(=O)=O)c1"
RESULT: > 20.6 µM (inactive)

----------
Test: Quantitative High-Throughput drug screen in 47 multiple myeloma cell lines against the NCATS MIPE library collection: VP6_DJ cell viability assay (AID 1919867); further: nearly all actives have a fitted effect of over 40% in size
Conditions: ATP luminescence, 48 h; series mostly up to 45.8 µM
From the text: PI: Beverly A. Mock Ph.D. Laboratory of Cancer Biology and Genetics, Center for Cancer Research, National Cancer Institute, National Institute of Health, Bethesda, Maryland […] 5; Detector; 425V; Luminescence; Viewlux PerkinElmer. […] 1. […] Briefly, the corresponding myeloma cell lines were screened in 1,536-well plates with 500 cells, 5-uL per well for inhibition of cell viability (assessed by measuring ATP levels with CellTiterGlo). […]
Records with an inconclusive call do not appear. The source made the active and inactive calls. The call rests on the fitted dose curve; in most records, active means well fitted cell-killing curve with a large enough effect; inconclusive means small, poorly fitted or top-dose-only effect, or effect the other way; inactive means no such curve, though single readings can be large or run the other way.
A correct response names exactly one class from active, inactive

Known results for compounds:
Cc1nc(NC(=O)N2CCC[C@@H]2C(N)=O)sc1-c1csc(C(C)(C)C)n1    active
CN(C)CCOc1ccc(C(=C(CCCl)c2ccccc2)c2ccccc2)cc1    inactive
CN1C(=O)C(Cc2c[nH]c3ccccc23)NC1=S (stereo not given)    active
Cc1ccc(NC(=O)Nc2cc(C(F)(F)F)ccc2F)cc1Nc1ccc2c(c1)NC(=O)C2=Cc1ccc[nH]1    active
O=C(O)Cc1cccc(OCCCN(Cc2cccc(C(F)(F)F)c2Cl)CC(c2ccccc2)c2ccccc2)c1    active
O=C(CCCN1CCN(c2ccc(F)cc2)CC1)NC1c2ccccc2CSc2ccccc21 (stereo not given)    active
CCCCCCCCCCCCCC(=O)N[C@H](CO)[C@H](O)c1ccc([N+](=O)[O-])cc1    active
Cc1cccc(-c2[nH]c(C(C)(C)C)nc2-c2ccc3c(c2)OCO3)n1    active

QUERY: Tell me the recorded outcome of this test for CCCCC(C=O)NC(=O)C(CC(C)C)NC(=O)OCc1ccccc1 (stereo not given) .
RESULT: inactive

QUERY: Can you look up the reported call for "CCNC(=O)Nc1ccc(Oc2ncnc(N)c2C=NOC)cc1Cl" for me?
RESULT: active
